Reference for the values: the supplement of paper PMC4466140

Target: SpAbp1-D1
Assay: SPOT peptide array binding signal intensity (averaged, normalized) (arbitrary units (background-subtracted, floor 0; scale differs between SH3 domains)); higher = stronger binding of the SH3 domain to the peptide
Measured SPOT peptide array binding signal intensity values are reported for all entries that follow.
metric: SPOT peptide array binding signal intensity

{"columns": ["binder", "observed"],
 "data": [
  ["VSKLRSPNTPRRLRK", 384],
  ["RSVKRPRRAPRPVVS", 146],
  ["LPPPPPPPPPPPLPQ", 3],
  ["KTRLRPAFIQQLWSS", 54.5]
]}
